test system: HeLa; experiment: Antiproliferative activity against human HeLa cells assessed as inhibition of cell growth incubated for 48 hrs by MTT assay; assay type: functional, cell-based
pIC50: −log10 of the molar value.
quantityKind: pIC50

compound=Nc1ccccc1NC(=O)CCCCOc1no[n+]([O-])c1S(=O)(=O)c1ccccc1 resultvalue=5.91
compound=Nc1ccccc1NC(=O)CCCCCCCOc1no[n+]([O-])c1S(=O)(=O)c1ccccc1 resultvalue=5.81
compound=Nc1ccccc1NC(=O)CCCCCOc1no[n+]([O-])c1S(=O)(=O)c1ccccc1 resultvalue=5.82

====

assay: Antiproliferative activity against human Bortezomib-resistant RPMI-8226 cells assessed as inhibition of cell growth incubated for 72 hrs by XTT assay; type: functional, cell-based; conditions: Bortezomib-resistant RPMI-8226, 72 h
pIC50: −log10 of the molar value.
quantityKind: pIC50

compound="CC(C)C[C@@H](NC(=O)[C@H](Cc1ccccc1)NC(=O)c1ccc(C(=O)Nc2ccccc2N)cc1)B1OC2CC3CC(C3(C)C)[C@@]2(C)O1 (some centres not stated)" resultvalue=6.95
compound="CC(C)C[C@@H](NC(=O)[C@H](Cc1ccccc1)NC(=O)c1cnc(C(=O)Nc2ccccc2N)cn1)B1OC2CC3CC(C3(C)C)[C@@]2(C)O1 (some centres not stated)" resultvalue=6.80

These data points were gathered from ChEMBL document CHEMBL5625191.
